Assay: NCI Yeast Anticancer Drug Screen. Data for the bub3 strain (AID 167)
Settings: S. cerevisiae bub3 mutant strain, at 50.0 µM, hits give high values
Method: Growth inhibition of yeast strains with defined genetic alterations is measured as a screen for potential anti-cancer activity. Selected strains with alterations in DNA damage repair or cell cycle control were exposed to compounds and growth inhibition was measured relative to vehicle treated controls. The strain used in this assay is bub3
About 79,000 compounds went through this panel and 15% of them were active in at least one assay; those are over-represented in the sample as a whole.
quantity.name: growth inhibition (%)
# value in %; strip the unit string

The value of growth inhibition measured for the molecule NC(Cc1ccc(O)c(O)c1)P(=O)(O)O (configuration not stated) turned out to be -0.1

The value of growth inhibition measured for the molecule CCOC(=O)c1ccc(N=Nc2c(N)nc(N)nc2N)cc1 turned out to be -0.15

The value of growth inhibition measured for the molecule CC(C)(O)c1cc(=O)n(-c2ccccc2)[nH]1 turned out to be -18

More entries:
The value of growth inhibition measured for the molecule CN(C)CCCNc1ncnc2nc[nH]c12 turned out to be -28.4

The value of growth inhibition measured for the molecule Clc1ccc(CSc2ccc3nncc(SCc4ccc(Cl)cc4Cl)c3c2)c(Cl)c1 turned out to be 15.1

The value of growth inhibition measured for the molecule CC(=O)Nc1c(C)ccc(C)c1C(=O)O turned out to be 13.8

The value of growth inhibition measured for the molecule CC(O)c1cc2c(s1)C(=O)c1scc(C(C)O)c1C2=O (configuration not stated) turned out to be 91.4

The value of growth inhibition measured for the molecule C=C(C)C1Cc2c(cc(O)c3c(=O)c4c(oc23)C(O)Oc2cc(OC)c(OC)cc2-4)O1 (configuration not stated) turned out to be 2.85

The value of growth inhibition measured for the molecule c1ccc(CN2COc3c(ccc4c5c(ccc34)CN(Cc3ccccc3)CO5)C2)cc1 turned out to be -19.9

The value of growth inhibition measured for the molecule Cc1ccc(NC(=O)CC2Sc3ccccc3NC2=O)c(C)c1 (configuration not stated) turned out to be -20.3

The value of growth inhibition measured for the molecule C=CCCCCCCCCC(=O)NC(C)C(C)(C)C (configuration not stated) turned out to be 27.3

The value of growth inhibition measured for the molecule CCCCCCCCCC(=O)OCC1OC(n2cc(F)c(=O)[nH]c2=O)C(NC(=O)OCc2ccccc2)C(OC(=O)CCCCCCCCC)C1O (configuration not stated) turned out to be -0.35

The value of growth inhibition measured for the molecule CC1=CC(=C(C#N)C#N)c2ccccc2N1C turned out to be 14.6

The value of growth inhibition measured for the molecule O=C1CN(CCN2CCCCC2)CC(=O)N2CCCCN12 turned out to be -5.75

The value of growth inhibition measured for the molecule CCOC(=O)c1c(O)csc1C turned out to be -6.05

The value of growth inhibition measured for the molecule Cn1c(=O)ccc2c1nc1ccccc1[n+]2[O-] turned out to be 4.75

The value of growth inhibition measured for the molecule Cc1cccc2c(C(=O)O)c3cccc(C)c3nc12 turned out to be 5.3

The value of growth inhibition measured for the molecule COc1ccc(Cl)cc1NC(=O)Nc1ccc(F)c([N+](=O)[O-])c1 turned out to be 33.5

The value of growth inhibition measured for the molecule Cc1cccc(C(=O)c2ccccc2Cc2cccc3ccccc23)c1C turned out to be 9.5
